# Tested on: Macrophoma kawatsukai
# test details: Fungicidal (bactericidal) activity in vitro, PDA colony diameter
# Type: cell-based
# condition notes: 50 mg/kg
assay metric: Bactericidal activity (%) Macrophoma kawatsukai
Numeric answer only, unit % assumed.

compound string	observed value
CCOC(=O)c1cc2c([nH]c3ccccc32)c(C)n1	52.9
C[C@@H]1N[C@H](C(=O)NN=Cc2ccco2)Cc2c1[nH]c1ccccc21	69.4

Moving on to the next compound.
Prompt line: Name the recorded Bactericidal activity (%) Macrophoma kawatsukai for C[C@@H]1N[C@H](C(=O)NN=Cc2ccc3cc(O)ccc3c2)Cc2c1[nH]c1ccccc21 .
Response line: 77.8

---

# System: cotton bollworms
# test details: whole plant or invertebrate
# condition notes: concentration 600 mg/kg
I'd appreciate it if you marked entries Met when Cotton bollworm Mortality (%) is lower than 20% and Not met when it is not.

Would you please look over these solved cases?
molecule	label value
C[C@@H]1N[C@H](C(=O)NN=Cc2ncc[nH]2)Cc2c1[nH]c1ccccc21 [Ic-21]	Not met
COc1ccc(C=NNC(=O)[C@@H]2Cc3c([nH]c4ccccc34)[C@H](C)N2)cc1OC [Ic-11]	Not met
C[C@@H]1N[C@H](C(=O)NN=Cc2ccc(N(C)C)cc2)Cc2c1[nH]c1ccccc21 [Ic-3]	Not met
CCCC=NNC(=O)[C@@H]1Cc2c([nH]c3ccccc23)[C@H](C)N1 [Ic-23]	Met

Prompt line: Does the reported Cotton bollworm Mortality (%) of CC(=O)Oc1ccc2c(c1)[nH]c1c(C)nccc12 [Ia-7] stay below 20%?
Response line: Not met

---

The entries below are paired with their reported Mosquito larvae Mortality (%).
# System: mosquito larvae
# test details: whole plant or invertebrate
# condition notes: concentration 10 mg/kg, 24 h
Numeric answer only, unit % assumed.

Solved entries:
molecule	assay metric	result units	observed value
C[C@@H]1N[C@H](C(=O)NN=C2CCCCC2)Cc2c1[nH]c1ccccc21 [Ic-29]	Mosquito larvae Mortality (%)	%	45
CCOC(=O)C1Cc2c([nH]c3ccccc23)CN1 (stereo not shown) [Ib-9]	Mosquito larvae Mortality (%)	%	35
C[C@@H]1N[C@H](C(=O)NN=Cc2ccc[nH]2)Cc2c1[nH]c1ccccc21 [Ic-19]	Mosquito larvae Mortality (%)	%	100

Prompt line: Identify the measured Mosquito larvae Mortality (%) of C[C@@H]1N[C@H](C(=O)NN=Cc2ccc(N(C)C)cc2)Cc2c1[nH]c1ccccc21 [Ic-3] for mosquito larvae.
Response line: 55

Prompt line: What do you get for CCOC(=O)c1cc2c([nH]c3ccccc32)c(C)n1 [Ia-10] ?
Response line: 65

Prompt line: What do you get for C[C@@H]1N[C@H](C(=O)NCC2CCCO2)Cc2c1[nH]c1ccccc21 (stereo partly shown) [Ib-20] ?
Response line: 100

Prompt line: What do you get for C[C@@H]1N[C@H](C(=O)NNC(=O)C2CCCC2)Cc2c1[nH]c1ccccc21 [Id-7] ?
Response line: 80

---

The entries below are paired with their reported inhibition of growth at 50 mg/kg.
# Test system: Alternaria solani
# test details: Fungicidal (bactericidal) activity in vitro, PDA colony diameter
# Type: cell-based
# condition notes: Alternaria solani, 96 h; 50 mg/kg
Numeric answer only, unit % assumed.

compound string	inhibition of growth at 50 mg/kg / %
CCOC(=O)[C@@H]1Cc2c([nH]c3ccccc23)[C@H](C)N1	55.6
Cc1nccc2c1[nH]c1cc(OC(=O)NC(C)C)ccc12	21.1
C[C@H]1N[C@@H](C(=O)O)Cc2c1[nH]c1ccccc21	0
Cc1nccc2c1[nH]c1cc(OC(=O)[C@@H](NC(=O)OCc3ccccc3)C(C)C)ccc12	36.8
Cc1nccc2c1[nH]c1cc(O)ccc12	26.3
C[C@@H]1N[C@H](C(=O)NCN(C)C)Cc2c1[nH]c1ccccc21	25
Cc1nc(C(=O)O)cc2c1[nH]c1ccccc12	33.3
CC1=NCCc2c1[nH]c1ccccc21	26.3

Prompt line: Name the recorded inhibition of growth at 50 mg/kg for C[C@@H]1N[C@H](C(=O)NNC(=O)c2cccc3nnsc23)Cc2c1[nH]c1ccccc21 .
Response line: 19

Prompt line: What do you get for N#Cc1c(Cl)c(Cl)c(Cl)c(C#N)c1Cl ?
Response line: 73.3

Prompt line: What do you get for C[C@@H]1N[C@H](C(=O)NN)Cc2c1[nH]c1ccccc21 ?
Response line: 9.5

Prompt line: What do you get for C[C@@H]1N[C@H](C(=O)NC2CCCCC2)Cc2c1[nH]c1ccccc21 ?
Response line: 52.6

Prompt line: What do you get for Cc1nccc2c1[nH]c1c([N+](=O)[O-])cccc12 ?
Response line: 15.8

Prompt line: What do you get for CCCCNC(=O)[C@@H]1Cc2c([nH]c3ccccc23)[C@H](C)N1 ?
Response line: 21.1

Prompt line: What do you get for C[C@@H]1N[C@H](C(=O)N/N=C/c2ccccc2)Cc2c1[nH]c1ccccc21 ?
Response line: 57.1

---

The entries below are paired with their reported mortality at 600 mg/kg.
# Test system: corn borers
# test details: whole plant or invertebrate
# condition notes: read-out: Corn borer Mortality (%)
Numeric answer only, unit % assumed.

Solved entries:
compound string	target desc	assay metric	observed value
O=C(O)[C@@H]1Cc2c([nH]c3ccccc23)[C@H](c2ccccc2)N1	corn borers	mortality at 600 mg/kg	35
C[C@@H]1N[C@H](C(=O)NNC(=O)c2cccc3nnsc23)Cc2c1[nH]c1ccccc21	corn borers	mortality at 600 mg/kg	35
C[C@H]1N[C@@H](C(=O)O)Cc2c1[nH]c1ccccc21	corn borers	mortality at 600 mg/kg	10
Cc1nccc2c1[nH]c1cc(OC(=O)[C@@H](NC(=O)OCc3ccccc3)C(C)C)ccc12	corn borers	mortality at 600 mg/kg	5
COc1ccc2c(c1)[nH]c1c(C)nccc12	corn borers	mortality at 600 mg/kg	15

Moving on to the next compound.
Prompt line: Identify the measured mortality at 600 mg/kg of C[C@@H]1N[C@H](C(=O)NN)Cc2c1[nH]c1ccccc21 for corn borers.
Response line: 30

---

# System: Fusarium graminearumt
# test details: microbe, parasite or virus in culture
# Assay type: cell-based
# condition notes: 50 mg/kg
The entries below are paired with their reported Bactericidal activity (%) Fusarium graminearumt.
Numeric answer only, unit % assumed.

Prompt line: Name the recorded Bactericidal activity (%) Fusarium graminearumt for C[C@@H]1N[C@H](C(=O)NN=Cc2ccc(Cl)cc2)Cc2c1[nH]c1ccccc21 [Ic-5] .
Response line: 75.9

Prompt line: What do you get for C[C@@H]1N[C@H](C(=O)NN=Cc2ccc([N+](=O)[O-])cc2)Cc2c1[nH]c1ccccc21 [Ic-4] ?
Response line: 58.6

Prompt line: What do you get for CCOC(=O)[C@@H]1Cc2c([nH]c3ccccc23)[C@H](CC)N1 [Ib-10] ?
Response line: 35.7

FYI, the data here is from patent US10208033B2.
